Test system: rat nAChR α3β2 (Rattus norvegicus, UniProt P04757+P12390)
Construct: expressed in transfected cells; host or cells: Xenopus oocytes injected with cRNA
Assay notes: cell-based
Assay type: cell-based
Positions of bridges follow the written chain, without caps; N, C: chain ends. Residues, ends and D or L forms follow the SMILES beside them.
Experimental endpoint: pIC50
Units for pIC50: none; it is -log10 of a concentration expressed in mol/L.

The compound identified as CC(C)C[C@@H]1NC(=O)[C@H](CCC(=O)O)NC(=O)[C@@H]2CCCN2C(=O)[C@H](Cc2c[nH]cn2)NC(=O)[C@H](CO)NC(=O)[C@H](C(C)C)NC(=O)[C@H](C)NC(=O)[C@@H]2CSSC[C@H](NC(=O)[C@H](CCC(=O)O)NC(=O)[C@@H]3CCCN3)C(=O)N[C@@H](CSSC[C@@H](C(N)=O)NC1=O)C(=O)N[C@@H]([C@@H](C)O)C(=O)N[C@@H](Cc1c[nH]cn1)C(=O)N1CCC[C@H]1C(=O)N[C@@H](C)C(=O)N2 [Mr1.7[H10A]] (H-PECCTHPACAVSHPELC-NH2; disulfide 3-9, 4-17) registered its pIC50 at 6.91

Taken from paper PMC4483627.
